System: Hepatitis B virus
Method description: Antiviral activity against HBV infected in human HepG2(2.2.15) cells assessed as inhibition of HBeAg level after 9 days by ELISA
Assay type: functional, organism-based
Experimental conditions: HepG2 2.2.15, 216 h
Property measured: IC50 (µM)

See these solved cases before continuing.
Line notation	IC50, µM
COc1ccc(/C(=N/C2CCCCC2)c2ccc(=O)n(C3CCCCC3)c2)c(O)c1	71
COc1ccc(/C(=N/Cc2cccc(F)c2)c2ccc(=O)n(Cc3cccc(F)c3)c2)c(O)c1	0.5
CCCCCn1cc(C(=O)c2ccc(OC)cc2O)ccc1=O	39
COc1ccc(C(=O)c2ccc(=O)n(-c3ccc(C(C)=O)cc3)c2)c(O)c1	774
COc1ccc(C/N=C(\c2ccc(=O)n(Cc3ccc(OC)cc3)c2)c2ccc(OC)cc2O)cc1	2

a = COc1ccc(/C(=N/C2CC2)c2ccc(=O)n(C3CC3)c2)c(O)c1
b = CCCCC/N=C(\c1ccc(=O)n(CCCCC)c1)c1ccc(OC)cc1O
Prompt line: Among a and b , which shows a numerically higher IC50 result? Please reply using the label of the selected record.
Response line: a

* * *

Method description: Selectivity index, ratio of CC50 for human HepG2(2.2.15) cells to IC50 for HBV infected in human HepG2(2.2.15) cells assessed as inhibition of HBeAg
Type: functional
Form field: Ratio CC50/IC50 (one value per entry).
Just the number.

Reference set (5 entries):
Line notation	Measured value
COc1ccc(-n2cc(C(=O)c3ccc(OC)cc3O)ccc2=O)cc1	1.56
COc1ccc(/C(=N/Cc2cccc(F)c2)c2ccc(=O)n(Cc3cccc(F)c3)c2)c(O)c1	16
CCCn1cc(C(=O)c2ccc(OC)cc2O)ccc1=O	2.83
CCCCCn1cc(C(=O)c2ccc(OC)cc2O)ccc1=O	2.03
COc1ccc(/C(=N/Cc2ccc(F)cc2F)c2ccc(=O)n(Cc3ccc(F)cc3F)c2)c(O)c1	0.25

Noted for COc1ccc(/C(=N/Cc2ccccc2F)c2ccc(=O)n(Cc3ccccc3F)c2)c(O)c1 : its Ratio CC50/IC50 reads 1.7

Quick note, Ratio CC50/IC50 for COc1ccc(C(=O)c2ccc(=O)n(-c3ccccc3)c2)c(O)c1 landed at 2.36

* * *

Test system: Hepatitis B virus
Method description: Antiviral activity against HBV infected in human HepG2(2.2.15) cells assessed as inhibition of HBeAg level after 9 days by ELISA
Format: functional, organism-based
Experimental conditions: HepG2 2.2.15, 216 h
pIC50: −log10 of the molar value.
Property measured: pIC50

Reference set, count: 4
Line notation	pIC50
COc1ccc(/C(=N/Cc2ccc(F)cc2F)c2ccc(=O)n(Cc3ccc(F)cc3F)c2)c(O)c1	4.40
C=CC/N=C(\c1ccc(=O)n(CC=C)c1)c1ccc(OC)cc1O	4.40
C=CCn1cc(C(=O)c2ccc(OC)cc2O)ccc1=O	4.24
COc1ccc(C(=O)c2ccc(=O)n(-c3cc(C)ccc3C)c2)c(O)c1	4.42

I = COc1ccc(/C(=N/Cc2ccccc2F)c2ccc(=O)n(Cc3ccccc3F)c2)c(O)c1
II = COc1ccc(C(=O)c2ccc(=O)n(-c3ccccc3OC)c2)c(O)c1
III = COc1ccc(C(=O)c2ccc(=O)n(-c3ccccc3C)c2)c(O)c1
Prompt line: Put the compounds in ascending order of pIC50. Return value: ordered labels per request.
Response line: II, I, III

# credit: ChEMBL document CHEMBL1156796
